- assayRemarks: Average lethal intravenous dose in rats
- measurementConditions: both, rat, in vivo

smiles	LD50
CC(=O)O[C@@]12CO[C@@H]1C[C@H](O)[C@@]1(C)C(=O)[C@H](O)C3=C(C)[C@@H](OC(=O)[C@H](O)[C@@H](NC(=O)OC(C)(C)C)c4ccccc4)C[C@@](O)([C@@H](OC(=O)c4ccccc4)[C@H]21)C3(C)C	0.12 mg/kg
